- MEASUREMENT_DESCRIPTION: amyloid nucleation score (Sup35N fusion, yeast selection) (log enrichment); library NNK3; higher = more nucleation; inactive = no reads after selection;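 also: zero at mode of non-aggregating sequences after 7 days selection at 30°C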
PROPERTY: amyloid nucleation score

A selection of reference data follows.
>  <SUBSTANCE>
NRVFPANLSSLSSCSTFTLW

>  <PROPERTY>
amyloid nucleation score

>  <ENDPOINT_RESULT>
inactive

$$$$
>  <SUBSTANCE>
YVGYRFSHFSSGKRSCSYL

>  <PROPERTY>
amyloid nucleation score

>  <ENDPOINT_RESULT>
inactive

$$$$
>  <SUBSTANCE>
HCSWTSSAHEGPYAETGHWQ

>  <PROPERTY>
amyloid nucleation score

>  <ENDPOINT_RESULT>
0.557

$$$$
>  <SUBSTANCE>
ETYYFSVGFFY

>  <PROPERTY>
amyloid nucleation score

>  <ENDPOINT_RESULT>
inactive

$$$$
>  <SUBSTANCE>
CFMLSDGHTCFVLMSGWFSS

>  <PROPERTY>
amyloid nucleation score

>  <ENDPOINT_RESULT>
inactive

$$$$

Ask: Can you share its amyloid nucleation score? I mean this substance: LIKCPIRYDDYKRPWLAS
Reply: inactive

Ask: Can you share its amyloid nucleation score? I mean this substance: RMIASAFFADCEKYVVNNLE
Reply: 0.028

Ask: Can you share its amyloid nucleation score? I mean this substance: FARVSVESRGGNVTFACLCI
Reply: 1.73

Ask: Can you share its amyloid nucleation score? I mean this substance: KLLRQNSY
Reply: inactive

Ask: Can you share its amyloid nucleation score? I mean this substance: IYCWCSVIDTGRAARLRVIK
Reply: inactive

Ask: Can you share its amyloid nucleation score? I mean this substance: RILALCGHRGNGLQGYILLD
Reply: 0.744

Ask: Can you share its amyloid nucleation score? I mean this substance: VCLFHDSLRDNYRT
Reply: inactive

Ask: Can you share its amyloid nucleation score? I mean this substance: DVNFSLC
Reply: -0.002

Ask: Can you share its amyloid nucleation score? I mean this substance: DFARFIPFRPDFNFWGRLTG
Reply: inactive

Ask: Can you share its amyloid nucleation score? I mean this substance: LENNIRSDSTFSTWTHDQCQ
Reply: inactive
